Test system: Trichophyton rubrum
Experiment: Antifungal growth inhibition assay in 96 well microtitre plates (A595)
Format: cell-based
measuredEndpoint: IC50 against T. rubrum (mg/L)
Reply with just the number (in mg/L).

## Task Fill in the blank: the reported IC50 against T. rubrum of NaD1: Solanaceous Class II plant defensin from Nicotiana alata, SEQ ID NO:18 (RECKTESNTFPGICITKPPCRKACISEKFTDGHCSKILRRCLCTKPC; NaD1 Nicotiana alata) is ____.
## Result 8

## Task Same thing, different substance: HXL005: Class I plant defensin from Taraxcum kok-saghyz, SEQ ID NO:8 (Table 1) (KMCQTTSHAFSCVNDSGCSGSCEKQGFASGKCDGVRRRCTCYKKC; HXL005 Taraxcum kok-saghyz)
## Result 3

## Task Same thing, different substance: HXL015: Class I plant defensin from Oryza sativa, SEQ ID NO:12 (RHCLSQSHRFKGMCVSSNNCANVCRTESFPDGECKSHGLERKCFCKKVC; HXL015 Oryza sativa)
## Result 10

## Task Same thing, different substance: HXL013: Class I plant defensin from Glycine max, SEQ ID NO:11 (KDCLTRRHGFQGRCLFDRQCAHVCRSDGFIGGQCRGPLRKCFCSRPC; HXL013 Glycine max)
## Result 22

## Task Same thing, different substance: HXL012: Class I plant defensin from Amaranthus retroflexus, SEQ ID NO:10 (RMCKAPSKLFRGMCGIRDSNCDSVCRAEGMAAGDCHGLRRRCICSRPC; HXL012 Amaranthus retroflexus)
## Result 2

## Task Same thing, different substance: HXL008: Class I plant defensin from Picramnia pentandra, SEQ ID NO:1 (KVCTKPSKFFKGLCGTDGACTTACRKEGLHSGYCQLKGFLNSVCVCRKHC; HXL008 Picramnia pentandra)
## Result 3

## Task Same thing, different substance: HXL004: Class I plant defensin from Nicotiana benthamiana, SEQ ID NO:7 (Table 1) (RTCESQSHRFKGLCFSRSNCASVCHTEGFNGGHCRGFRRRCFCTRHC; HXL004 Nicotiana benthamiana)
## Result 27.5

## Task Same thing, different substance: HXL035: Class I plant defensin from Picramnia pentandra, SEQ ID NO:2 (KVCTKPSKFFKGLCGFDRDCTVACKKEGLASGFCQNKGFFNVVCVCRKPC; HXL035 Picramnia pentandra)
## Result 2
